Assayed target: ABL1 (Homo sapiens)
Construct: purchased Carna Biosciences
Protocol details: Luminescence-based ABL kinase assay (ADP-Glo, 300 μM ATP)
Type: biochemical
// values below are reported IC50
Write the number in nM without appending the unit.

Below are worked cases with known answers.
Structure smiles | IC50 [nM]
COc1cccc(OC)c1-c1c[nH]c2nc(NC(=O)NCC3CNC3)ccc12 | 32.9
COc1ccccc1-c1c[nH]c2nc(NC(=O)NCCOCCN(C)C)ccc12 | 317
O=C(Nc1ccc2c(-c3cccnc3OCC(F)(F)F)c[nH]c2n1)[C@@H]1C[C@@H]1F | 2580

Moving on to the next compound.
Data point: `CNc1cccc(-c2c[nH]c3nc(NC(=O)C4CC4)ccc23)n1` ; IC50 = 195

###

Assayed target: ABL1 (Homo sapiens)
Construct: purchased Carna Biosciences
Protocol details: Luminescence-based ABL kinase assay (ADP-Glo, 300 μM ATP)
Format: biochemical
Labelling field: enter condition met if recorded IC50 is less than 50 nM. Enter condition not met if it equals or exceeds that cut-off.

These solved cases illustrate the format of a correct answer.
Compound | Assayed target | Class label
COc1ccccc1-c1c[nH]c2nc(NC(=O)[C@H]3C[C@@H]3CC#N)ccc12 (relative stereo) [Compound 107] | ABL1 (Homo sapiens) | condition not met
COc1nc2nc[nH]c2cc1-c1c[nH]c2nc(NC(=O)C3CC3)ccc12 [Compound 61] | ABL1 (Homo sapiens) | condition met
COc1nccc(C)c1-c1n[nH]c2nc(NC(=O)[C@@H]3C[C@@H]3F)ccc12 [Compound 112] | ABL1 (Homo sapiens) | condition not met
COc1ncc(F)c(OC)c1-c1c[nH]c2nc(NC(=O)[C@@H]3C[C@@H]3F)ccc12 [Compound 76] | ABL1 (Homo sapiens) | condition met
O=C(Nc1ccc2c(-c3cccnc3OC(F)F)c[nH]c2n1)C1CC1 [Compound 48] | ABL1 (Homo sapiens) | condition not met

Lookup: Is 50 nM strictly greater than the compound's reported IC50? compound: O=C(Nc1ccc2c(-c3ccc4nccn4c3)c[nH]c2n1)[C@@H]1C[C@@H]1F [Compound 71]
Found: condition met

###

# Lookup of reported IC50 keyed by entry
Assayed target: ABL1 (Homo sapiens, UniProt P00519)
Construct: purchased Carna Biosciences
Sequence (P00519 whole entry): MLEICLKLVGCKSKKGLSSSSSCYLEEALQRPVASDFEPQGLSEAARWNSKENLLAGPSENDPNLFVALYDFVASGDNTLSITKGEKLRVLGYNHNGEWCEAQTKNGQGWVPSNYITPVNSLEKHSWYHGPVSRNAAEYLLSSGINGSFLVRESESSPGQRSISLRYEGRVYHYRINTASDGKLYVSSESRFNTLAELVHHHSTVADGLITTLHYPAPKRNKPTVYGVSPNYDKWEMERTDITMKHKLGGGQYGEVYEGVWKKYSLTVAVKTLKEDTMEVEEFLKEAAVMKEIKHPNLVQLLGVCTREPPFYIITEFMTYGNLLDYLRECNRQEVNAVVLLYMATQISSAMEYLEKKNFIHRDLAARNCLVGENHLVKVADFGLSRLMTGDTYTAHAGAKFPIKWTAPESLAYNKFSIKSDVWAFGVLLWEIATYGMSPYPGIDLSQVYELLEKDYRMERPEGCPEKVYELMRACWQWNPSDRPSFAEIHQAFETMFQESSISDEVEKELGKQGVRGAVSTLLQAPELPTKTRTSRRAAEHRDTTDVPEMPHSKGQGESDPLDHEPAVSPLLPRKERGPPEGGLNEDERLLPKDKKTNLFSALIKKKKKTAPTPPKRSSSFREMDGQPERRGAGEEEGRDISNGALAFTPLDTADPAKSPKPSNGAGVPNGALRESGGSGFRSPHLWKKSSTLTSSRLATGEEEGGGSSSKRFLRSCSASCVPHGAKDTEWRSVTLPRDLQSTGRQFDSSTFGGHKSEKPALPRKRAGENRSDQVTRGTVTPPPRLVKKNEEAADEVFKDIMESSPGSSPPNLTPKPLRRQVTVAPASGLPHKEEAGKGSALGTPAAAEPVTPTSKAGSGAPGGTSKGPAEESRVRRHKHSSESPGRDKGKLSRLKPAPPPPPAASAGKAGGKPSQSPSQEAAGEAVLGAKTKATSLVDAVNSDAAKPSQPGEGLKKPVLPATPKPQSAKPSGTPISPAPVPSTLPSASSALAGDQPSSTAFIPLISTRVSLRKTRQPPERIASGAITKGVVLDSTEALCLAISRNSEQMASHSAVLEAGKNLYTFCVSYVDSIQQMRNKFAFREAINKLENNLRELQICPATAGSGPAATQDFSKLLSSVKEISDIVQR
Protocol details: Luminescence-based ABL kinase assay (ADP-Glo, 300 μM ATP)
Format: biochemical
Return type: number; implicit unit nM.

Past entries and their recorded results:
Compound | IC50, nM
COc1ccccc1-c1c[nH]c2nc(NC(=O)[C@@H]3C[C@@H]3F)ccc12 [Compound 3] | 8.17
COc1ncc(F)cc1-c1c[nH]c2nc(NC(=O)NCCN(C)C)ccc12 [Compound 80] | 1050
COc1ncc(F)cc1-c1n[nH]c2nc(NC(=O)[C@@H]3C[C@@H]3F)ccc12 [Compound 74] | 55.6
COc1nc(C)nc(OC)c1-c1c[nH]c2nc(NC(=O)[C@@H]3C[C@@H]3F)ccc12 [Compound 142] | 14.6
COc1c(-c2c[nH]c3nc(NC(=O)C4CC4)ccc23)ccc2[nH]cnc12 [Compound 15] | 12.1
CCOc1ncccc1-c1c[nH]c2nc(NC(=O)C3CC3)ccc12 [Compound 47] | 7.47
O=C(Nc1ccc2c(-c3cccnc3OC3CC3)c[nH]c2n1)[C@@H]1C[C@@H]1F [Compound 69] | 27.6
O=C(Nc1ccc2c(-c3cccnc3OC(F)F)c[nH]c2n1)[C@@H]1C[C@@H]1F [Compound 70] | 60.3

The reported IC50 of the compound COc1ncc(F)cc1-c1c[nH]c2nc(NC(=O)[C@@H]3C[C@@H]3F)ccc12 [Compound 92] was 39.4

The compound listed as O=C(Nc1ccc2c(-c3c(F)cccc3F)c[nH]c2n1)C1CC1 [Compound 46] has a reported IC50 of 86.4

COc1cccc(OC)c1-c1c[nH]c2nc(NC(=O)NCCN3CCNCC3)ccc12 [Compound 135] yielded IC50 of 24.9

Entry COc1ncc(F)c(OC)c1-c1c[nH]c2nc(NC(=O)[C@H]3C[C@H]3F)ccc12 [Compound 125] — recorded IC50 = 22.2

The reported value for COc1ccccc1-c1c[nH]c2nc(NC(=O)[C@H]3C[C@H]3F)ccc12 [Compound 2] in terms of IC50 is 22.2

Data origin, for the record: patent US20240043420A1
